Tested on: SF-268
Assay: NCI tumour cell line growth inhibition, 48 h
Calls of active or inactive are those of the source. No stated cut-off is given here; in the data, active = GI50 up to about 1.1 µM and inactive = higher.
observation type: GI50

// below: answered molecules
molecule | GI50
Nc1nc(Cl)c(N)c(NCC2(CO)CC(OCc3ccccc3)C2)n1 (centres undefined) | > 100 µM (inactive)
COC1C(=O)CCC2(CO2)C1(O)C1(C)OC1CCC(C)C (centres undefined) | 78.3 µM (inactive)
NNC(=O)c1cc(Cl)ccc1NC(=O)C12CC3CC(CC(C3)C1)C2 | 20.2 µM (inactive)
Cc1ccc(S(=O)(=O)N(/N=C(\N)Oc2ccc(Cl)cc2)C(=N)Oc2ccc(Cl)cc2)cc1 | > 100 µM (inactive)
O=C(COc1ccc2c(=O)cc(-c3ccccc3)oc2c1)N1CCN(c2ccccc2)CC1 | 46.2 µM (inactive)
COc1c(O)cc2c(c1O)C1O[C@H](CO)C(O)[C@H](O)[C@H]1OC2=O (some centres undefined) | > 100 µM (inactive)
C[C@]12CC[C@H]3[C@@H](CCC4=CC(=O)CC[C@@]43C)[C@@H]1CC[C@@H]2C(=O)Nc1ccc([N+](=O)[O-])c(C(F)(F)F)c1 | 21.4 µM (inactive)
CCCC[C@@H]1CCN2C[C@@H](O)[C@@H](O)[C@@H]2[C@H]1O | > 100 µM (inactive)

stdin: Form field: reported GI50 of COC(=O)n1c(=O)n(-c2ccccc2)c(=O)n1C(=O)Nc1ccccc1
stdout: > 100 µM (inactive)

stdin: Also, O=C(c1cccs1)N(C(=S)OCCOc1ccccc1)c1ccccc1 please.
stdout: 34.1 µM (inactive)

stdin: Also, O=c1c2c(c1=O)C1(SCCCS1)c1cc(Cl)ccc1O2 please.
stdout: > 100 µM (inactive)

stdin: Also, Cc1nn2c(C(=O)N/N=C/c3ccc([N+](=O)[O-])cc3)c(C)nc2s1 please.
stdout: > 100 µM (inactive)

stdin: Also, C=CC[C@H]1[C@H](O[Si](C)(C)C(C)(C)C)C=CC(=O)[C@@H]1CC(=O)OCC please.
stdout: 14.4 µM (inactive)

stdin: Also, CSc1nc(NC2OC(COC(C)=O)C(OC(C)=O)C(OC(C)=O)C2OC(C)=O)c(/N=C/C=N/c2c(NC3OC(COC(C)=O)C(OC(C)=O)C(OC(C)=O)C3OC(C)=O)nc(SC)[nH]c2=O)c(=O)[nH]1 (centres undefined) please.
stdout: > 100 µM (inactive)

stdin: Also, CN(C)C(=O)OCOC(=O)N(C)C please.
stdout: > 100 µM (inactive)

---

Tested on: PC-3
Experiment: NCI tumour cell line growth inhibition, 48 h
Active and inactive are the calls of the source. No stated cut-off is given here; in the data, active = GI50 up to about 1.1 µM and inactive = higher.
observation type: GI50

// below: answered molecules
molecule | GI50
COc1ccc(C2CC(c3c(O)ccc4ccccc34)=NN2)cc1OC (stereo not given) | 3.54 µM (inactive)
Cc1cccc2c(N)c3cccc(C(=O)NCC[N+](C)(C)Cc4ccc(S(C)(=O)=O)cc4)c3nc12 | 44.2 µM (inactive)
CC1=C2C(=O)NN=C2CCN1c1ccc(Br)cc1 | > 100 µM (inactive)
Cc1cc(C)c(C)c(-n2[nH]c(=O)n(C)c2=O)c1C | > 100 µM (inactive)
O=C1O/C(=C(/Cl)c2c3ccccc3cc3ccccc23)c2ccccc21 | 24.8 µM (inactive)
CC1=CC(=O)/C(=C(/C)NCCN(CCN/C(C)=C2\C(=O)C=C(C)OC2=O)CCN/C(C)=C2\C(=O)C=C(C)OC2=O)C(=O)O1 | > 100 µM (inactive)

stdin: Form field: reported GI50 of CN(/N=C/c1ccc(Cl)c(Cl)c1)C1=NCCCCN1
stdout: 25.3 µM (inactive)

stdin: Also, COc1c(O)cc2c(c1O)C1O[C@H](CO)C(O)[C@H](O)[C@H]1OC2=O (stereo not given in full) please.
stdout: > 100 µM (inactive)

stdin: Also, COP(C)(=O)C1=CCN(C(=O)OCC[Si](C)(C)C)CC1 (stereo not given) please.
stdout: > 100 µM (inactive)

stdin: Also, O=c1[nH]nc(Cc2ccccc2)n1C1CC1 please.
stdout: > 100 µM (inactive)
